Target: PRDX1 (Homo sapiens)
Sequence (Q06830 whole entry): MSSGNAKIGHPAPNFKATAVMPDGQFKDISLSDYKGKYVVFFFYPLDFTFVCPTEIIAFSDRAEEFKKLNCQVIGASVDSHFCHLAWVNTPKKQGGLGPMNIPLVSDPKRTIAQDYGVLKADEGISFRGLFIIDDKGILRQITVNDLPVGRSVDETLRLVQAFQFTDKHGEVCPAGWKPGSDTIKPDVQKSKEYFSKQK
Assay: PRDX1 inhibition assay
Format: biochemical
Method: The cells were purchased from the American Type Culture Collection (ATCC) (Manassas, VA, United States). […] First, […] buffer (20 mM HEPES, 5 mM EDTA, 5 μM cofactor A, 2 μM cofactor B, and 300 μM NADPH) was added to a 96-well plate. […] The oxidation of NADPH was determined by the absorption value at 340 nm. Read plate values for 90 s for one cycle and repeat for 20 cycles. […]
METRIC_NAME: pIC50
pIC50 (log units): -log10 of the concentration in mol/L.

Query: Give the measured pIC50 of CC1=C(O)C(=O)C=C2C1=CC=C1[C@@]2(C)CC[C@@]2(C)[C@@H]3C[C@](C)(C(=O)O)CC[C@]3(C)CC[C@]12C .
Response: 6.29

====

target: EPHB4 (Homo sapiens, UniProt P54760); assay: Kinase selectivity assay; assay type: biochemical; conditions: target EPHB4; read-out: CP1 IC50
METRIC_NAME: IC50

Query: Give the measured IC50 of CC1=C(CC(=O)/C=C/c2cccc(CO)c2)C(=O)C=C2C1=CC=C1[C@@]2(C)CC[C@@]2(C)C3C[C@](C)(C(=O)CCc4nc(C(O)C(O)O)c(C)nc4C)CC[C@]3(C)CC[C@]12C (stereo partly shown) .
Response: > 30 µM

====

target: FGR (Homo sapiens)
Sequence (P09769 whole entry): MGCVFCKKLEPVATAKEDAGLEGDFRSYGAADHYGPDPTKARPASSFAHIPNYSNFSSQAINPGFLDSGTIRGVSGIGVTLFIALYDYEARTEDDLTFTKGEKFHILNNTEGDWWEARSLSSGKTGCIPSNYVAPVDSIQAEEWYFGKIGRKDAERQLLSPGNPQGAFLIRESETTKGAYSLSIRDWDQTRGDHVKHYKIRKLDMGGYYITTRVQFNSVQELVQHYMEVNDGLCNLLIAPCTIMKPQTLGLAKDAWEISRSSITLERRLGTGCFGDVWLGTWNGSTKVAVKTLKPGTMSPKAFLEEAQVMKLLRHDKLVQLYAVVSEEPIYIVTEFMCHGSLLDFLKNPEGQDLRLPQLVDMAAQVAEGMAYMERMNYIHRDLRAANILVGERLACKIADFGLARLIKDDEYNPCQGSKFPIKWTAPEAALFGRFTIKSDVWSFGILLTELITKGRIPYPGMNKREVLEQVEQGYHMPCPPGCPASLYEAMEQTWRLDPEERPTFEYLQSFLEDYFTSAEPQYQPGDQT
pIC50: −log10 of the molar value.
METRIC_NAME: pIC50

Query: Give the measured pIC50 of CC1=C(CC(=O)/C=C/c2cccc(CO)c2)C(=O)C=C2C1=CC=C1[C@@]2(C)CC[C@@]2(C)C3C[C@](C)(C(=O)CCc4nc(C(O)C(O)O)c(C)nc4C)CC[C@]3(C)CC[C@]12C (stereo partly shown) [CP1] .
Response: < 4.52

====

biological target: ABL2 (Homo sapiens, UniProt P42684)
Sequence (P42684 whole entry): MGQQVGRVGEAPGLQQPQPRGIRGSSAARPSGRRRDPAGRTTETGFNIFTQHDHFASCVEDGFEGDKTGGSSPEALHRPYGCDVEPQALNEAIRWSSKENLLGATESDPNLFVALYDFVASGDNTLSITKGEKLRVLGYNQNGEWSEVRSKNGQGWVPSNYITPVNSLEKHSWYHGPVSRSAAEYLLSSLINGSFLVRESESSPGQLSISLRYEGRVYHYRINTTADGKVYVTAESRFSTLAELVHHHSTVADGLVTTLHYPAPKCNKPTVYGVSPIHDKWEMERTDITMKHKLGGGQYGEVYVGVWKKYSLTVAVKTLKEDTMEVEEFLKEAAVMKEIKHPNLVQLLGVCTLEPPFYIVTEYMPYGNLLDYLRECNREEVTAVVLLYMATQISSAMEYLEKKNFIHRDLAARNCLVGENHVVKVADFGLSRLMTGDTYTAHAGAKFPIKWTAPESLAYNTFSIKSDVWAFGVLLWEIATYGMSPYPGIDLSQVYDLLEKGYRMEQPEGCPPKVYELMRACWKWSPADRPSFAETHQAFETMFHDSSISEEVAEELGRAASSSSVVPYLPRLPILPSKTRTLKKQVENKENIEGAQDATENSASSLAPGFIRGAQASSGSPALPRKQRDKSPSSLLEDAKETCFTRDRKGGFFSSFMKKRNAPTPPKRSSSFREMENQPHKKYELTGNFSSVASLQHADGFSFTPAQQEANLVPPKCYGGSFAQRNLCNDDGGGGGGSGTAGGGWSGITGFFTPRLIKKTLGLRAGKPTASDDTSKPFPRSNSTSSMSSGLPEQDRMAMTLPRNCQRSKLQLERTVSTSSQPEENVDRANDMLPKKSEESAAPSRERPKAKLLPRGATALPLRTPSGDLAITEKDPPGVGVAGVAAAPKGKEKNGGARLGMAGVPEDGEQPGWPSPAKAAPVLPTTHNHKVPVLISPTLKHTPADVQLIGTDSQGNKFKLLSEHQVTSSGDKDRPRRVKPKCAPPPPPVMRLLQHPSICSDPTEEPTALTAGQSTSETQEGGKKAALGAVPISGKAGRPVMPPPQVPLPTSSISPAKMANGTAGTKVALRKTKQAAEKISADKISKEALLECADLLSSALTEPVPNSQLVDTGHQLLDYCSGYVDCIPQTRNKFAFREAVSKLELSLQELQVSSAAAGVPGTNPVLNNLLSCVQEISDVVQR
pIC50: −log10 of the molar value.
METRIC_NAME: pIC50

Query: Look up pIC50 with ABL2 (Homo sapiens, UniProt P42684) for this compound: CC1=C(CC(=O)/C=C/c2cccc(CO)c2)C(=O)C=C2C1=CC=C1[C@@]2(C)CC[C@@]2(C)C3C[C@](C)(C(=O)CCc4nc(C(O)C(O)O)c(C)nc4C)CC[C@]3(C)CC[C@]12C (stereo partly shown)
Response: < 4.52

====

Biological target: AXL (Homo sapiens, UniProt P30530)
Construct: ICE Biosciences (Beijing, China), ran the assays
Sequence (P30530 26-894): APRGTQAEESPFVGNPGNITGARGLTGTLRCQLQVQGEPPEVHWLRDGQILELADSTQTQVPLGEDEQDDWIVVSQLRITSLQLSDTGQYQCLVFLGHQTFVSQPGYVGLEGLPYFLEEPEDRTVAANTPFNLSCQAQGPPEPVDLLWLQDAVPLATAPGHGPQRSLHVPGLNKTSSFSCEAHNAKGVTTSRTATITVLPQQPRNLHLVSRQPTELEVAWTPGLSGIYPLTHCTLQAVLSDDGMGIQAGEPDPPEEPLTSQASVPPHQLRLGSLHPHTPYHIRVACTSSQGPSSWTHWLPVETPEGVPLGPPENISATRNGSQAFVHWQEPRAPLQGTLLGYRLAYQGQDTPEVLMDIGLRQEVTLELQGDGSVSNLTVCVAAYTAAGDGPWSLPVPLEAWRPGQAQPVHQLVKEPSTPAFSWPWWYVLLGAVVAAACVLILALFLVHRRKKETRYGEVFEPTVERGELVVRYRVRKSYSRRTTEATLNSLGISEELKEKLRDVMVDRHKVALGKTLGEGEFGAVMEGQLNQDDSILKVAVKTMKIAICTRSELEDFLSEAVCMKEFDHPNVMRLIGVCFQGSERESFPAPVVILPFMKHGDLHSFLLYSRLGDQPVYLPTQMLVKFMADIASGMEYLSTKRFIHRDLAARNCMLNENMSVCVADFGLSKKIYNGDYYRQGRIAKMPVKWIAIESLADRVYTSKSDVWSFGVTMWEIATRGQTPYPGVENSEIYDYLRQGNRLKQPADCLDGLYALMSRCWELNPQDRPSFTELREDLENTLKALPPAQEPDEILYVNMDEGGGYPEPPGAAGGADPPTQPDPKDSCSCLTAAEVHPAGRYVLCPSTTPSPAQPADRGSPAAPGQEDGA
Assay: Kinase selectivity assay
Format: biochemical
Settings: target AXL; read-out: CP1 IC50
pIC50: −log10 of the molar value.
METRIC_NAME: pIC50

Query: Give the measured pIC50 of CC1=C(CC(=O)/C=C/c2cccc(CO)c2)C(=O)C=C2C1=CC=C1[C@@]2(C)CC[C@@]2(C)C3C[C@](C)(C(=O)CCc4nc(C(O)C(O)O)c(C)nc4C)CC[C@]3(C)CC[C@]12C (stereo partly shown) [CP1] .
Response: < 4.52

====

molecular target: KDR (Homo sapiens, UniProt P35968)
Sequence (P35968 20-1356): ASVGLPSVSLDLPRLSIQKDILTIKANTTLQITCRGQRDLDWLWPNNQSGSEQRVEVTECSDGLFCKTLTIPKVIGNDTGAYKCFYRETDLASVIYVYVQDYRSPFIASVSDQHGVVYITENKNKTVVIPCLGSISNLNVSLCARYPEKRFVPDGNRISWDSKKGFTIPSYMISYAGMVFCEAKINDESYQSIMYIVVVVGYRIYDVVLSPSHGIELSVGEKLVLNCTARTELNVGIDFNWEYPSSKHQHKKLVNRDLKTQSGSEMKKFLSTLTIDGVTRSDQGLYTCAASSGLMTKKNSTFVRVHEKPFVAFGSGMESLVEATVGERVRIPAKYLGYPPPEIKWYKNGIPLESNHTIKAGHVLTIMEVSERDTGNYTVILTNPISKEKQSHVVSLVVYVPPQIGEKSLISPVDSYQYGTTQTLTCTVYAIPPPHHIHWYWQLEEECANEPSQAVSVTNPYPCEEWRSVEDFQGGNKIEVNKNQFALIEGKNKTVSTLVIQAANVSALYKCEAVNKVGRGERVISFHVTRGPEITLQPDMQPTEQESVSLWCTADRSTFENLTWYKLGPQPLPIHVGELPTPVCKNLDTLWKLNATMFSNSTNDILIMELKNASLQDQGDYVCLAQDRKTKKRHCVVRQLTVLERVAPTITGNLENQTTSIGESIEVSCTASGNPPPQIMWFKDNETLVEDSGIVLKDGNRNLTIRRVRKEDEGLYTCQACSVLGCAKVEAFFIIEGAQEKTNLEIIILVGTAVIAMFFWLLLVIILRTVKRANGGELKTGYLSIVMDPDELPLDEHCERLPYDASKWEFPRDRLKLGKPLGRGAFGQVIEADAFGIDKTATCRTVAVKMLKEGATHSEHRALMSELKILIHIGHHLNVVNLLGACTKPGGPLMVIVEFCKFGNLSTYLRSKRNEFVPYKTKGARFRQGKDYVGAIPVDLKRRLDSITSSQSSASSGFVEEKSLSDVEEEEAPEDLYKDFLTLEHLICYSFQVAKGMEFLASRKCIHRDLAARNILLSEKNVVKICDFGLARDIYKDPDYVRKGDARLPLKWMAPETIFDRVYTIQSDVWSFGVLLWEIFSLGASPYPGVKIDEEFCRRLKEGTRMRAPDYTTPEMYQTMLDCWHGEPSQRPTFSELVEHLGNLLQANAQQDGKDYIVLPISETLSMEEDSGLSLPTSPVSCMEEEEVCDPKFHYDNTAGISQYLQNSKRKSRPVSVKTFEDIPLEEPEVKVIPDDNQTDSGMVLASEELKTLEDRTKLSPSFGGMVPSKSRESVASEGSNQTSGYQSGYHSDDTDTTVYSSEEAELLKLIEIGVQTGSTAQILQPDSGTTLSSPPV
pIC50: −log10 of the molar value.
METRIC_NAME: pIC50

Query: Look up pIC50 with KDR (Homo sapiens, UniProt P35968) for this molecule: CC1=C(CC(=O)/C=C/c2cccc(CO)c2)C(=O)C=C2C1=CC=C1[C@@]2(C)CC[C@@]2(C)C3C[C@](C)(C(=O)CCc4nc(C(O)C(O)O)c(C)nc4C)CC[C@]3(C)CC[C@]12C (stereo partly shown)
Response: < 4.52

====

biological target: UniProt P04626
Sequence (P04626 23-1255): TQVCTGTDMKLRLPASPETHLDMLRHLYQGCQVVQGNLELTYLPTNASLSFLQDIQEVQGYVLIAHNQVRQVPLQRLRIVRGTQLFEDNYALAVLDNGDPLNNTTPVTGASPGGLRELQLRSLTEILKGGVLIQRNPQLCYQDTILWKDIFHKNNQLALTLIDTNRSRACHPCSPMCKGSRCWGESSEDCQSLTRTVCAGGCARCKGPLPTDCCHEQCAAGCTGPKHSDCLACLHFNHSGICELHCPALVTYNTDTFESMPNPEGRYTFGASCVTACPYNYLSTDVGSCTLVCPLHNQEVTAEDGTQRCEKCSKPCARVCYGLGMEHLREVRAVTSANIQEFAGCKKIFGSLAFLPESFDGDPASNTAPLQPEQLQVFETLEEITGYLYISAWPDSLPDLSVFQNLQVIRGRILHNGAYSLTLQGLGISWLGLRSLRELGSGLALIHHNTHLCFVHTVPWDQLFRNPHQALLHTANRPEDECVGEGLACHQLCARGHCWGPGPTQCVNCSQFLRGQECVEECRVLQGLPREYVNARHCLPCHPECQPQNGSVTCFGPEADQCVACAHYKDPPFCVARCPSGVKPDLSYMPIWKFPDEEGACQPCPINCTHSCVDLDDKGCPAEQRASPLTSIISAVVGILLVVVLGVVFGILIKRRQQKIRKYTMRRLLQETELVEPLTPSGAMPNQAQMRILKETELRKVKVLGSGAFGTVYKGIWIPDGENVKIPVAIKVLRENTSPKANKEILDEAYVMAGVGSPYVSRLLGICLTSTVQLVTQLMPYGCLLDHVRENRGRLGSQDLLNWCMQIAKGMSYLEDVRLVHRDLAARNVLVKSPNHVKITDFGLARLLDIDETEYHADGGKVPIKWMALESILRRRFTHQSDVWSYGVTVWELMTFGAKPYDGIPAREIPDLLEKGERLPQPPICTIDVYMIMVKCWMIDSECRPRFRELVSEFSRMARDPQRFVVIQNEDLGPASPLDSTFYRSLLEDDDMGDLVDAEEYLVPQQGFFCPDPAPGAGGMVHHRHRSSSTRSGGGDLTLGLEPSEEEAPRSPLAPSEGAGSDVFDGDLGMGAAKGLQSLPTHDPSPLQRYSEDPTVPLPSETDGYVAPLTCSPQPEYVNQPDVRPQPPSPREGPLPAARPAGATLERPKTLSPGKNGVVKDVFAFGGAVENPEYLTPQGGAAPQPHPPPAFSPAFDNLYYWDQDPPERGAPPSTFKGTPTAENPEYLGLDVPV
pIC50: −log10 of the molar value.
METRIC_NAME: pIC50

Query: Give the measured pIC50 of CC1=C(CC(=O)/C=C/c2cccc(CO)c2)C(=O)C=C2C1=CC=C1[C@@]2(C)CC[C@@]2(C)C3C[C@](C)(C(=O)CCc4nc(C(O)C(O)O)c(C)nc4C)CC[C@]3(C)CC[C@]12C (stereo partly shown) [CP1] .
Response: < 4.52

====

Target: TYRO3 (Homo sapiens)
Sequence (Q06418 41-890): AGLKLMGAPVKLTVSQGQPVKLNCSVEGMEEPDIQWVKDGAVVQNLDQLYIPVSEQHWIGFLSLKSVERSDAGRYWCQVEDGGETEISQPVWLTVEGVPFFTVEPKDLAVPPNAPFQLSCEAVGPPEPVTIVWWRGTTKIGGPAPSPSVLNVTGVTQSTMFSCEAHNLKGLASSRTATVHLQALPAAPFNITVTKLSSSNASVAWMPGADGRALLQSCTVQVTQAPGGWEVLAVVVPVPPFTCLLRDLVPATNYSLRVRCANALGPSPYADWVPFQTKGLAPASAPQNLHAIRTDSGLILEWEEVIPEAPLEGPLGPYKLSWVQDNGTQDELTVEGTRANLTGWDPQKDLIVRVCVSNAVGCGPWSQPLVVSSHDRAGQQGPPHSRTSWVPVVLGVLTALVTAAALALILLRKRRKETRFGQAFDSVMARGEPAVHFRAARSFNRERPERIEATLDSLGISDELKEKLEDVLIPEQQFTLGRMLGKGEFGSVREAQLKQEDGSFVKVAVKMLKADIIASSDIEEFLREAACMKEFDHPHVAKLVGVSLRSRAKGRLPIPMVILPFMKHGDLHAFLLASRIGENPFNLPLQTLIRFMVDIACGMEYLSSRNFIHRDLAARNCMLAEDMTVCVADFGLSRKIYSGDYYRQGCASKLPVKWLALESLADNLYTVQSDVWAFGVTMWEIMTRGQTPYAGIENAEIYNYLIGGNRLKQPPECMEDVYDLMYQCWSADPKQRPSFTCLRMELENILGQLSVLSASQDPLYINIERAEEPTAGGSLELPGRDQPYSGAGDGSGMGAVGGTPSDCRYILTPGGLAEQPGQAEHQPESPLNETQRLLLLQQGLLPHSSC
METRIC_NAME: IC50

Query: Give the measured IC50 of CC1=C(CC(=O)/C=C/c2cccc(CO)c2)C(=O)C=C2C1=CC=C1[C@@]2(C)CC[C@@]2(C)C3C[C@](C)(C(=O)CCc4nc(C(O)C(O)O)c(C)nc4C)CC[C@]3(C)CC[C@]12C (stereo partly shown) [CP1] .
Response: > 30 µM

====

Target: MERTK (Homo sapiens, UniProt Q12866)
Sequence (Q12866 21-999): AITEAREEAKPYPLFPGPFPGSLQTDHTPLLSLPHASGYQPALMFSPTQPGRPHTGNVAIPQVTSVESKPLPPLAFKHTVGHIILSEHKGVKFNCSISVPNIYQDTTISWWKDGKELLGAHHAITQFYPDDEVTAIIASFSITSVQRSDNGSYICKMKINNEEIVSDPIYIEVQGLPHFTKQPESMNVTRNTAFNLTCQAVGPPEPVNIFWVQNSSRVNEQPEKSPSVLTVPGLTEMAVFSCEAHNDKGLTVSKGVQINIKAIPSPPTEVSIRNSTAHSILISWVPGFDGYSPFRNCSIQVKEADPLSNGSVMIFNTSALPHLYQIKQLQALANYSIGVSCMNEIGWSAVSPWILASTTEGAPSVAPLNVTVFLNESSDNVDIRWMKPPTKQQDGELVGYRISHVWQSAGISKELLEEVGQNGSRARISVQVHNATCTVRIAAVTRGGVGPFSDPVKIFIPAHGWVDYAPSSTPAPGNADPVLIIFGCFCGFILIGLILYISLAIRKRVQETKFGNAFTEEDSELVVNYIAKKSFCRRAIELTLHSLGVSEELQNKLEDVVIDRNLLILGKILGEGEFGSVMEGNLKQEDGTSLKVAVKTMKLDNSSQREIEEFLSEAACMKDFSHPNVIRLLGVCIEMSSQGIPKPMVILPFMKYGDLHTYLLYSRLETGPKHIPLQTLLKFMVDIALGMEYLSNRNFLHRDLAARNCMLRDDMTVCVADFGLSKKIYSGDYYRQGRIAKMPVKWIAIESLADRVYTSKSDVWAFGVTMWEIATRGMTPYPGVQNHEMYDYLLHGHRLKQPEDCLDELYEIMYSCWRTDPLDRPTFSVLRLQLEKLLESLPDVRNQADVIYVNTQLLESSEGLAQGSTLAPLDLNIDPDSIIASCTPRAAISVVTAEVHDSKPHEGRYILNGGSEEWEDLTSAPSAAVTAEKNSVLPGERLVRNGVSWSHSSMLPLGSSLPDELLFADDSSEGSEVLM
pIC50: −log10 of the molar value.
METRIC_NAME: pIC50

Query: Look up pIC50 with MERTK (Homo sapiens, UniProt Q12866) for this compound: CC1=C(CC(=O)/C=C/c2cccc(CO)c2)C(=O)C=C2C1=CC=C1[C@@]2(C)CC[C@@]2(C)C3C[C@](C)(C(=O)CCc4nc(C(O)C(O)O)c(C)nc4C)CC[C@]3(C)CC[C@]12C (stereo partly shown) [CP1]
Response: < 4.52

Cited source for all entries: paper PMC12325182
